Ref: PubChem BioAssay

Experiment: sensitizers of A549 cells to miR-34 induction, primary screen, imaging, A549 dox-inducible miR-34, nuclei and caspase counts (AID 1347080)
Conditions: A549 miR-34 inducible, Hoechst nuclei count, 48 h; measured here: relative caspase fold change +Dox/-Dox
Assign Yes to entries whose fold change meets or exceeds 0.7; assign No to the rest.

Study these solved cases before continuing.
Molecule	Cat
CC1(C)CC1C(=O)NC(=CCCCCSCC(N)C(=O)O)C(=O)O (stereo unspecified)	Yes
Cc1cccc(C)c1NC(=O)c1ccccc1C(=O)O	No
OC1C(O)C(O)C(O)C(O)C1O (stereo unspecified)	Yes
O=C(O[C@@H]1Cc2c(O)cc(O)cc2O[C@@H]1c1cc(O)c(O)c(O)c1)c1cc(O)c(O)c(O)c1	Yes
CON=C(C(=O)NC1C(=O)N2C(C(=O)O)=C(COC(C)=O)CSC12)c1csc(N)n1 (stereo unspecified)	Yes

Is fold change at least 0.7? Consider `COc1nccnc1NS(=O)(=O)c1ccc(N)cc1`
No

Is fold change at least 0.7? Consider C#CC1(O)CC[C@H]2[C@@H]3CCC4=CCCC[C@@H]4[C@H]3CC[C@@]21C (stereo partly specified)
Yes

---

Biological target: 6-phosphogluconate dehydrogenase, decarboxylating (Homo sapiens)
Test: 6PGD enzyme inhibitors, primary screen, biochemical, human, recombinant enzyme, NADPH absorbance (AID 1159550)
Conditions: recombinant 6PGD, NADPH absorbance 341 nm; at 10 µM; stronger effect = higher value
Where a SMILES comes first, the peptide text is derived from it. [ ]: non-standard residue; d: D form. The star is where a group is joined. NHCH2CH2OH = OCCN*; For = O=C*
inhibition values by entry
Give the value in % but do not write % after it.

Molecule	inhibition [%]
OC[C@H]1O[C@@H](O[C@H]2[C@H](O)[C@@H](O)[C@H](O)O[C@@H]2CO)[C@H](O)[C@@H](O)[C@@H]1O	-3.99
CC(C)C[C@@H](NC(=O)[C@H](C)NC(=O)CNC(=O)[C@@H](NC=O)C(C)C)C(=O)N[C@@H](C)C(=O)N[C@@H](C(=O)N[C@H](C(=O)N[C@H](C(=O)N[C@@H](Cc1c[nH]c2ccccc12)C(=O)N[C@H](CC(C)C)C(=O)N[C@@H](Cc1c[nH]c2ccccc12)C(=O)N[C@H](CC(C)C)C(=O)N[C@@H](Cc1c[nH]c2ccccc12)C(=O)N[C@H](CC(C)C)C(=O)N[C@@H](Cc1c[nH]c2ccccc12)C(=O)NCCO)C(C)C)C(C)C)C(C)C (For-VGA[dL]A[dV]VVW[dL]W[dL]W[dL]W-NHCH2CH2OH)	10.9
CN1[C@@H]2CC[C@H]1CC(OC(c1ccccc1)c1ccccc1)C2 (stereo partly specified)	13.6

Reported inhibition, molecule `CCC(=O)OCC(=O)[C@@]1(OC(=O)CC)[C@@H](C)C[C@H]2[C@@H]3CCC4=CC(=O)C=C[C@]4(C)[C@@]3(Cl)[C@@H](O)C[C@@]21C` : ____
-4.35

Reported inhibition, molecule `O=c1oc2ccccc2cc1O` : ____
15.9

---

Target: Calcium-activated potassium channel subunit alpha-1 (Homo sapiens) + Leucine-rich repeat-containing protein 26 (Homo sapiens) (UniProt Q12791+Q2I0M4)
Sequence (Q2I0M4 whole entry, looked up, one chain of several): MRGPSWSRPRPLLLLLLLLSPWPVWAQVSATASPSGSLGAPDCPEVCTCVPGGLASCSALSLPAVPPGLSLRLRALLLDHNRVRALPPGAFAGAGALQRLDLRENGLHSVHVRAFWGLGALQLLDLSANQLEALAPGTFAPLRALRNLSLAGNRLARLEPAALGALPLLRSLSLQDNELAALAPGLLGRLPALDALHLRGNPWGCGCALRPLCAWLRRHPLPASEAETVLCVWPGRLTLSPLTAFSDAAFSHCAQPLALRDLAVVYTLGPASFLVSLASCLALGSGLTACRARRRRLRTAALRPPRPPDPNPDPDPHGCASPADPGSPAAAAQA
Test: modulators of BK channel variants, profiling panel, selectivity assay, cell-based, U2OS BacMam, thallium flux, beta subunits (AID 1259406);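 note: initial slope of Thallos dye fluorescence rise after thallium is added; log ratio against the mean of 0.3% DMSO vehicle wells on the same plate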
Details: F380Y/Slo1WT/gamma1, at 30 µM
Assign True to entries whose log fold change Tl+ flux meets or exceeds 0.02; assign False to the rest.

Compound	Cat
C#C[C@]1(OC(C)=O)CC[C@H]2[C@@H]3CCC4=CC(=O)CC[C@@H]4[C@H]3CC[C@@]21C	False
C#C[C@]1(O)CC[C@H]2[C@@H]3CCC4=CC(=O)CC[C@@H]4[C@H]3CC[C@@]21C	False
CC(C(=O)O)c1cccc(C(=O)c2ccccc2)c1 (stereo unspecified)	True
COc1c2occc2cc2ccc(=O)oc12	False
COc1ccc2cc([C@H](C)C(=O)O)ccc2c1	True

Now examine the next entry.
Is log fold change Tl+ flux at least 0.02? Consider `Cc1occc(=O)c1O`
False
